target: Glucocorticoid receptor (Homo sapiens, UniProt P04150); assay: Transactivation of GAL-4 tagged glucocorticoid receptor ligand binding domain expressed in human HeLa cells assessed as NP1 activation by luciferase reporter gene assay; format: cell-based
Sequence (P04150 whole entry, the tested form may be a part): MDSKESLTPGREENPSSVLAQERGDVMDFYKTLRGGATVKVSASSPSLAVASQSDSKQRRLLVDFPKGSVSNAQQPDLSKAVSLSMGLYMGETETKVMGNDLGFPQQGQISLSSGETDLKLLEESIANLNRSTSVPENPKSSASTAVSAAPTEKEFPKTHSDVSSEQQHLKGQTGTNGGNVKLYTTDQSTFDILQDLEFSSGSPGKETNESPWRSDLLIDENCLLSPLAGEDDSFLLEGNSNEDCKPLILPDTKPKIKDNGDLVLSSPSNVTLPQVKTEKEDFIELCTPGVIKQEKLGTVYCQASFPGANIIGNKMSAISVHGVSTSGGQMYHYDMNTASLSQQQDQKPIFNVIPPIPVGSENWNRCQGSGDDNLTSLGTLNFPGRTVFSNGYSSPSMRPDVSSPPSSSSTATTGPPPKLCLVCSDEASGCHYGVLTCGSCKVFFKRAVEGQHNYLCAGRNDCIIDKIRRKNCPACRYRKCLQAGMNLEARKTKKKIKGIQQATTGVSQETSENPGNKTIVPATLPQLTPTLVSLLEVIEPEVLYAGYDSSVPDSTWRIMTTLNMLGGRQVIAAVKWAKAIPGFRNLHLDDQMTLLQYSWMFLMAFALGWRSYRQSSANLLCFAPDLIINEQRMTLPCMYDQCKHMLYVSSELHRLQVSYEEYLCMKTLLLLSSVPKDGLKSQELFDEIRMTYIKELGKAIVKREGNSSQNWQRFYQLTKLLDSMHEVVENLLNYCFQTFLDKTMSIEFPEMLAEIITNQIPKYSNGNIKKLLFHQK
pEC50: −log10 of the molar value.
Entries and their pEC50
experimental-readout: pEC50

- smiles: "C[C@]12Cn3cnc(-c4ccc(F)cc4)c3C=C1CCC[C@@H]2[C@](C)(O)c1ccc(Cl)cc1"
  tgt: "Glucocorticoid receptor (Homo sapiens, UniProt P04150)"
  experimental-readout: "pEC50"
  inequality-symbol: "="
  measured-result: 6.16
- smiles: "C[C@]12Cn3cnc(-c4ccc(F)cc4)c3C=C1CCC[C@@H]2[C@](C)(O)c1ccc(C#N)cc1"
  tgt: "Glucocorticoid receptor (Homo sapiens, UniProt P04150)"
  experimental-readout: "pEC50"
  inequality-symbol: "<"
  measured-result: 5.00
- smiles: "CCCC[C@@](C)(O)[C@H]1CCCC2=Cc3c(-c4ccc(F)cc4)ncn3C[C@@]21C"
  tgt: "Glucocorticoid receptor (Homo sapiens, UniProt P04150)"
  experimental-readout: "pEC50"
  inequality-symbol: "="
  measured-result: 5.95
- smiles: "CC(C)C[C@@](C)(O)[C@H]1CCCC2=Cc3c(-c4ccc(F)cc4)ncn3C[C@@]21C"
  tgt: "Glucocorticoid receptor (Homo sapiens, UniProt P04150)"
  experimental-readout: "pEC50"
  inequality-symbol: "="
  measured-result: 6.06
- smiles: "C[C@]12Cn3cnc(-c4ccc(F)cc4)c3C=C1CCC[C@@H]2[C@](C)(O)Cc1ccc(F)cc1"
  tgt: "Glucocorticoid receptor (Homo sapiens, UniProt P04150)"
  experimental-readout: "pEC50"
  inequality-symbol: "="
  measured-result: 6.12

----------
target: Glucocorticoid receptor (Homo sapiens, UniProt P04150); test: Transrepression activity at glucocorticoid receptor expressed in human A549 cells assessed as inhibition of PMA-induced AP1 activity after 6 hrs by luciferase reporter gene assay; assay type: cell-based; conditions: a549

- compound: "C=CCC(O)C1CCCC2=Cc3c(-c4ccc(F)cc4)ncn3CC21C (single isomer, unassigned; diastereomer 2)"
  EC50: "> 2.5 µM"

----------
target: Glucocorticoid receptor (Homo sapiens); experiment: Transrepression activity at glucocorticoid receptor expressed in human A549 cells assessed as inhibition of PMA-induced AP1 activity after 6 hrs by luciferase reporter gene assay; type: cell-based
pEC50: −log10 of the molar value.
Entries and their pEC50

- compound: "CC(C)C[C@@](C)(O)[C@H]1CCCC2=Cc3c(-c4ccc(F)cc4)ncn3C[C@@]21C"
  tgt: "Glucocorticoid receptor (Homo sapiens)"
  inequality-symbol: "="
  pEC50: 6.88
- compound: "C[C@]12Cn3cnc(-c4ccc(F)cc4)c3C=C1CCC[C@@H]2[C@](C)(O)c1cccs1"
  tgt: "Glucocorticoid receptor (Homo sapiens)"
  inequality-symbol: "="
  pEC50: 7.28
- compound: "C=CC[C@@](C)(O)[C@H]1CCCC2=Cc3c(-c4ccc(F)cc4)ncn3C[C@@]21C"
  tgt: "Glucocorticoid receptor (Homo sapiens)"
  inequality-symbol: "="
  pEC50: 7.24
- compound: "C[C@]12Cn3cnc(-c4ccc(F)cc4)c3C=C1CCC[C@@H]2[C@](C)(O)c1ccc(C#N)cc1"
  tgt: "Glucocorticoid receptor (Homo sapiens)"
  inequality-symbol: "="
  pEC50: 7.23
- compound: "Cc1ccsc1[C@@](C)(O)[C@H]1CCCC2=Cc3c(-c4ccc(F)cc4)ncn3C[C@@]21C"
  tgt: "Glucocorticoid receptor (Homo sapiens)"
  inequality-symbol: "="
  pEC50: 7.54
- compound: "Cc1ccccc1[C@@](C)(O)[C@H]1CCCC2=Cc3c(-c4ccc(F)cc4)ncn3C[C@@]21C"
  tgt: "Glucocorticoid receptor (Homo sapiens)"
  inequality-symbol: "="
  pEC50: 7.60
- compound: "C[C@]12Cc3cnn(-c4ccc(F)cc4)c3C=C1CCCC2[C@@H](O)c1csc2ccccc12 (stereo partly drawn)"
  tgt: "Glucocorticoid receptor (Homo sapiens)"
  inequality-symbol: "="
  pEC50: 8.74
- compound: "CO[C@](C)(c1cccs1)[C@H]1CCCC2=Cc3c(-c4ccc(F)cc4)ncn3C[C@@]21C"
  tgt: "Glucocorticoid receptor (Homo sapiens)"
  inequality-symbol: "<"
  pEC50: 5.30
- compound: "C[C@]12Cn3cnc(-c4ccc(F)cc4)c3C=C1CCC[C@@H]2[C@](C)(O)c1ccccc1"
  tgt: "Glucocorticoid receptor (Homo sapiens)"
  inequality-symbol: "="
  pEC50: 7.80
- compound: "C[C@]12Cn3cnc(-c4ccc(F)cc4)c3C=C1CCC[C@@H]2[C@](C)(O)C1CCCCC1"
  tgt: "Glucocorticoid receptor (Homo sapiens)"
  inequality-symbol: "="
  pEC50: 8.70
- compound: "C[C@]12Cn3cnc(-c4ccc(F)cc4)c3C=C1CCC[C@@H]2[C@](C)(O)C(F)(F)F"
  tgt: "Glucocorticoid receptor (Homo sapiens)"
  inequality-symbol: "="
  pEC50: 7.51
- compound: "C[C@]12Cn3cnc(-c4ccc(F)cc4)c3C=C1CCC[C@@H]2[C@](C)(O)Cc1ccc(F)cc1"
  tgt: "Glucocorticoid receptor (Homo sapiens)"
  inequality-symbol: "="
  pEC50: 6.64
- compound: "CCCC[C@@](C)(O)[C@H]1CCCC2=Cc3c(-c4ccc(F)cc4)ncn3C[C@@]21C"
  tgt: "Glucocorticoid receptor (Homo sapiens)"
  inequality-symbol: "="
  pEC50: 7.47
- compound: "C[C@]12Cn3cnc(-c4ccc(F)cc4)c3C=C1CCC[C@@H]2[C@](C)(O)c1nccs1"
  tgt: "Glucocorticoid receptor (Homo sapiens)"
  inequality-symbol: "="
  pEC50: 6.96
- compound: "C=CCC(O)C1CCCC2=Cc3c(-c4ccc(F)cc4)ncn3CC21C (single isomer, unassigned; diastereomer 1)"
  tgt: "Glucocorticoid receptor (Homo sapiens)"
  inequality-symbol: "<"
  pEC50: 5.60
- compound: "C[C@]12Cn3cnc(-c4ccc(F)cc4)c3C=C1CCC[C@@H]2[C@](C)(O)c1ccc(Cl)s1"
  tgt: "Glucocorticoid receptor (Homo sapiens)"
  inequality-symbol: "="
  pEC50: 7.96
- compound: "Cc1ccc([C@@](C)(O)[C@H]2CCCC3=Cc4c(-c5ccc(F)cc5)ncn4C[C@@]32C)s1"
  tgt: "Glucocorticoid receptor (Homo sapiens)"
  inequality-symbol: "="
  pEC50: 7.55
- compound: "C[C@]12Cn3cnc(-c4ccc(F)cc4)c3C=C1CCC[C@@H]2[C@](C)(O)c1ccsc1"
  tgt: "Glucocorticoid receptor (Homo sapiens)"
  inequality-symbol: "="
  pEC50: 8.30

----------
target: Glucocorticoid receptor (Homo sapiens); test: Transactivation of GAL-4 tagged glucocorticoid receptor ligand binding domain expressed in human HeLa cells assessed as NP1 activation by luciferase reporter gene assay; format: cell-based
Response field label: string, one of fulfilled (EC50 strictly below 500 nM) or not fulfilled.

- smiles: "C[C@]12Cn3cnc(-c4ccc(F)cc4)c3C=C1CCC[C@@H]2[C@](C)(O)c1ccccc1"
  class-name: "not fulfilled"
- smiles: "C[C@]12Cn3cnc(-c4ccc(F)cc4)c3C=C1CCC[C@@H]2[C@](C)(O)C1CCCCC1"
  class-name: "fulfilled"
- smiles: "C=CC[C@@](C)(O)[C@H]1CCCC2=Cc3c(-c4ccc(F)cc4)ncn3C[C@@]21C"
  class-name: "not fulfilled"
- smiles: "C[C@]12Cn3cnc(-c4ccc(F)cc4)c3C=C1CCC[C@@H]2[C@](C)(O)c1ccsc1"
  class-name: "not fulfilled"
- smiles: "C[C@]12Cn3cnc(-c4ccc(F)cc4)c3C=C1CCC[C@@H]2[C@](C)(O)c1nccs1"
  class-name: "not fulfilled"
- smiles: "Cc1ccsc1[C@@](C)(O)[C@H]1CCCC2=Cc3c(-c4ccc(F)cc4)ncn3C[C@@]21C"
  class-name: "fulfilled"
- smiles: "C[C@]12Cn3cnc(-c4ccc(F)cc4)c3C=C1CCC[C@@H]2[C@](C)(O)c1ccc(Cl)s1"
  class-name: "fulfilled"
- smiles: "Cc1cccc([C@@](C)(O)[C@H]2CCCC3=Cc4c(-c5ccc(F)cc5)ncn4C[C@@]32C)c1"
  class-name: "not fulfilled"
- smiles: "C[C@]12Cn3cnc(-c4ccc(F)cc4)c3C=C1CCC[C@@H]2[C@](C)(O)C1CC1"
  class-name: "not fulfilled"

----------
biological target: UniProt P04150; assay: Transrepression activity at glucocorticoid receptor expressed in human A549 cells assessed as inhibition of PMA-induced AP1 activity after 6 hrs by luciferase reporter gene assay; assay type: cell-based
pEC50: −log10 of the molar value.

- molecule: "C[C@]12Cn3cnc(-c4ccc(F)cc4)c3C=C1CCC[C@@H]2[C@](C)(O)c1cccc(C#N)c1"
  inequality-symbol: "="
  pEC50: 7.74
- molecule: "Cc1cccc([C@@](C)(O)[C@H]2CCCC3=Cc4c(-c5ccc(F)cc5)ncn4C[C@@]32C)c1"
  inequality-symbol: "="
  pEC50: 8.02
- molecule: "C=CC[C@H](O)C1CCCC2=Cc3c(cnn3-c3ccc(F)cc3)C[C@@]21C (stereo partly drawn)"
  inequality-symbol: "="
  pEC50: 8.03
- molecule: "C[C@]12Cn3cnc(-c4ccc(F)cc4)c3C=C1CCC[C@@H]2[C@](C)(O)c1ccc(Cl)cc1"
  inequality-symbol: "="
  pEC50: 8.12
- molecule: "C[C@]12Cn3cnc(-c4ccc(F)cc4)c3C=C1CCC[C@@H]2[C@H](O)c1ccc(F)cc1 (stereo in doubt; 19)"
  inequality-symbol: "="
  pEC50: 6.57
- molecule: "C[C@]12Cn3cnc(-c4ccc(F)cc4)c3C=C1CCC[C@@H]2[C@](C)(O)C1CC1"
  inequality-symbol: "="
  pEC50: 7.43
- molecule: "C[C@]12Cn3cnc(-c4ccc(F)cc4)c3C=C1CCC[C@@H]2[C@H](O)c1ccc(F)cc1 (stereo in doubt; 18)"
  inequality-symbol: "<"
  pEC50: 5.30
- molecule: "C[C@]12Cn3cnc(-c4ccc(F)cc4)c3C=C1CCC[C@@H]2[C@](C)(O)c1ccc(F)cc1"
  inequality-symbol: "="
  pEC50: 7.70
